Molecular target: T1, His-tagged human CTLA-4 (CT4-H5229; Acro Biosystems) (human, UniProt P16410 36-161)
T1 construct: bought soluble protein; also called soluble human CTLA-4; recombinant human CTLA-4; not shown: His tag
T1 sequence (P16410 36-161 limits assumed): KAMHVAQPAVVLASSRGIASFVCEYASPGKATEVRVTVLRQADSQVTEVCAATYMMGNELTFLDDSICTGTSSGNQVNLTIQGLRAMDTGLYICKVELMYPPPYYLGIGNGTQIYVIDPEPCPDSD
Experiment: SPR (Carterra)
Reported Property: Kd

Problem: Record request: Kd value, item antibody A8 (L8H8) (antibody, V domains shown, also called aCTLA-4.1) VH: QVQLVESGGGVVQPGRSLRLSCAASGFTFSRYGMHWVRQAPGKGLEWVAVIWYDGRNKYYADSVKGRFTISRDNSKNTLYLQMNSLRAEDTALYSCARAGELGPFDYWGQGTLVTVSS VL: EIVLTQSPGTLSLSPGERATLSCRASQSVSYLAWYQQKPGQAPRLLIYGASSRATGIPDRFSGSGSGTDFTLTISRLEPEDFAVYYCQQYGSSPWTFGQGTKVEIK
Solution: 4.6 nM
